src = patent US20220017622A1

For each of the binders below, state its IC50.
# system-tested: T1, human B7-H4 extracellular domain (human, UniProt Q7Z7D3 29-258);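 also: tested antibody premixed 1:1 with biotinylated parental antibody, 2 h at room temperature on coated ECD, bound biotin detected via streptavidin-HRP, absorbance read at 450 nm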
# T1 construct: For SPR it says only human B7-H4 ECD; also called Hu B7-H4 ECD; huB7-H4 ECD
# T1 sequence: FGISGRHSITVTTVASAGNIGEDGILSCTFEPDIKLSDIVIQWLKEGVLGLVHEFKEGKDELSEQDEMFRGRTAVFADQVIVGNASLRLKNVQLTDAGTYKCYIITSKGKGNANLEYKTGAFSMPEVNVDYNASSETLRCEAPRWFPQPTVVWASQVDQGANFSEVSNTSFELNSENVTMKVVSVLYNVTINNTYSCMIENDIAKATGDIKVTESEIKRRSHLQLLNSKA
# assay-details: competition ELISA on coated huB7-H4 ECD; competitor biotinylated 0052 (by series, not given)
The reply should consist of the numeric value with the unit placed after it.

binder: B7-H4 antibody 0538 (antibody, human IgG1, kappa, V domains shown) VH: EVQLVESGGGLVQPGGSLRLSCAASGGSFSGYYWNWIRQPPGKGLEWIGEIDHQGSTKYNPSLKSRVTISVDTAKNSLYLQMNSLRAEDTAVYYCARGLYNWNVDHWGQGTLVTVSS VL: DIQMTQSPSSLSASVGDRVTITCRASQGIRNDLGWYQQKPGKAPKRLIYAASSLQSGVPSRFSGSGSGTDFTLTISSLQPEDFATYYCLQHNAYPRTFGGGTKVEIKR
IC50: 21.9 nM

Moving on to the next binder.
Enquiry: Requested read-out: IC50. Entry: B7-H4 antibody 0383 (antibody, human IgG1, kappa, V domains shown) VH: QVQLQQWGAGLLKPSETLPLTCAVYGGSFSGYYWNWIRQPPGKGLEWIGEINHSGSATYNPSLKSRVTISVDTSKNHFSLKLSSVTAADTAVYFCARGLYNWNVDHWGQGTLVTVSS VL: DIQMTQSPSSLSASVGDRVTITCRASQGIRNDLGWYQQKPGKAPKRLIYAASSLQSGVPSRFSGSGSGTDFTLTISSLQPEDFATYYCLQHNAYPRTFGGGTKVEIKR
Return: 7.17 nM
